system: HT29 RNF43 G659fs (RNF43 659mut, CRISPR-edited); experiment: cell viability activity relative to DMSO (negative = inhibition); higher = more viable cells (less growth inhibition); details: 5 µM; 96 h
Measured cell viability activity values are reported for all entries that follow.
Dear colleague, please return just the value in %, with no unit written.

Before answering, review these 8 worked examples.
COc1cc2ncn(-c3cc(OCc4ccccc4C(F)(F)F)c(C(N)=O)s3)c2cc1OC
-72.5
CCCCC/N=c1\ccn(Cc2ccccc2)c2ccccc12
-62.5
Nc1ncnc2c1c(-c1cccc(OCc3ccccc3)c1)cn2C1CC(CN2CCCC2)C1 (stereo not drawn)
-48
C[C@H]1[C@@H](O)O[C@@H]2O[C@@]3(C)CC[C@H]4[C@H](C)CC[C@@H]1[C@@]24OO3
-30.9
CNC(=O)c1ccccc1Nc1nc(Nc2ccc(N3CCOCC3)cc2OC)ncc1Cl
-73.1
Clc1ccc(COC(Cn2ccnc2)c2ccc(Cl)cc2Cl)cc1 (stereo not drawn)
-23.9
CN1CCc2c(c3ccccc3n2Cc2ccccc2)C1
-59.2
CC(C)C[C@H](NC(=O)[C@H](Cc1ccccc1)NC(=O)c1cnccn1)B(O)O
-94.1

**Q:** So what does the record say about cell viability activity for CN(C)C(=O)CCSC(SCCC(=O)O)c1cccc(/C=C/c2ccc3ccc(Cl)cc3n2)c1 (stereo not drawn) ?
**A:** -22.6

**Q:** Please give the measured cell viability activity for this molecule: CCS(=O)(=O)c1cccc(-c2cc(C(=O)NC3CCN(C)CC3)c(C)c3[nH]c4ncc(C)cc4c23)c1
**A:** -90.1

====

system: HT29 RNF43 G659fs (RNF43 659mut, CRISPR-edited); assay: cell viability activity relative to DMSO (negative = inhibition); higher = more viable cells (less growth inhibition); conditions: 5 µM; 96 h
Threshold -80%. cell viability activity below it: 1.0. cell viability activity at it or above: 0.0.

Look over these answered cases.
CN(c1ncccc1CNc1nc(Nc2ccc3c(c2)CC(=O)N3)ncc1C(F)(F)F)S(C)(=O)=O
1.0
Nc1ccc2cc3ccc(N)cc3nc2c1
0.0
CN1CCN(c2ccc3nc(-c4c(N)c5c(F)cccc5[nH]c4=O)[nH]c3c2)CC1
0.0
COc1c/c(=C2\C=c3ccccc3=N2)[nH]/c1=C\c1[nH]c(C)cc1C
1.0

**Q:** State whether -80% exceeds cell viability activity recorded for CCCCCCCCN=c1ccn(CCCCCCCCCCn2ccc(=NCCCCCCCC)cc2)cc1 .
**A:** 1.0

====

system: HT29 RNF43 G659fs (RNF43 659mut, CRISPR-edited); assay: cell viability activity relative to DMSO (negative = inhibition); higher = more viable cells (less growth inhibition); conditions: 5 µM; 96 h
Parameter Measured: cell viability activity (%)
All answers are understood in %, so give the number only.

COc1cc2c(Nc3ccc(Cl)c(Cl)c3F)ncnc2cc1OC[C@@H]1C[C@@H]2CN(C)C[C@@H]2C1
-90.6
Cc1nc(=O)c2cc(CN(C)c3ccc(C(=O)N[C@@H](CCC(=O)O)C(=O)O)s3)ccc2[nH]1
-60.2

Now turn to the next molecule.
**Q:** // lookup cell viability activity for C[C@H](Nc1cc(-c2cnn(C)c2)cc(Nc2cnccn2)n1)c1ccc(F)cc1
**A:** -46.9

====

test system: HT29 RNF43 G659fs (RNF43 659mut, CRISPR-edited); assay: cell viability activity relative to DMSO (negative = inhibition); higher = more viable cells (less growth inhibition); settings: 5 µM; 96 h
Categorize each record by its cell viability activity using bin 0 (below -80%), bin 1 (-80% to below -50%), bin 2 (-50% or more)

Nc1nc(Cl)nc2c1ncn2[C@@H]1O[C@H](CO)[C@@H](O)[C@@H]1F
bin 2

**Q:** Class label required: COc1ccc(-c2nc(N3CCOCC3)c3sc(CN(C)c4ncc(C(=O)NO)cn4)cc3n2)cn1
**A:** bin 0

**Q:** Which class does COC(=O)[C@H]1[C@H]2C[C@@H]3c4[nH]c5cc(OC)ccc5c4CCN3C[C@H]2C[C@@H](OC(=O)c2cc(OC)c(OC)c(OC)c2)[C@@H]1OC fall in?
**A:** bin 2

**Q:** Lab note: which band did Cc1nc2ccccc2n1Cc1ccc(Cl)cc1 land in?
**A:** bin 1

**Q:** Category lookup for the compound O=C(O)c1ccc(-n2nc(-c3ccccc3O)nc2-c2ccccc2O)cc1
**A:** bin 2

**Q:** // bin(item) where item = COC(=O)Nc1ccc(-c2nc(N3CCOCC3)c3cnn(C4CCN(Cc5cccnc5)CC4)c3n2)cc1
**A:** bin 1

**Q:** Entry C1CCC(C(CC2CCCCN2)C2CCCCC2)CC1 (stereo not given) belongs to which category?
**A:** bin 0

**Q:** For this compound, which bin applies? O=C(NOCC(O)CO)c1cc(Br)c(F)c(F)c1Nc1ccc(I)cc1F (stereo not given)
**A:** bin 1

**Q:** Where would COc1cc(-c2ncn(/C=C/C(=O)OC(C)C)n2)cc(C(F)(F)F)c1 land among the classes by reported cell viability activity?
**A:** bin 1

**Q:** Class (by measured cell viability activity) for CNC(=O)c1nn(C)c2c1C(C)(C)Cc1cnc(Nc3ccc(N4CCN(C)CC4)cc3)nc1-2
**A:** bin 1

====

tested on: HT29 RNF43 G659fs (RNF43 659mut, CRISPR-edited); assay: cell viability activity relative to DMSO (negative = inhibition); higher = more viable cells (less growth inhibition); details: 5 µM; 96 h
Classify: T when cell viability activity is strictly less than -80%; F when cell viability activity is not.

Past entries and their recorded results:
Cc1cc(Nc2ccc(NC(=O)c3ccc(Nc4ccnc5ccccc45)cc3)cc2)nc(N)n1
T
CS[C@H]1SC[C@H]2C(=O)N(C)[C@@H](C(C)C)C(=O)OC[C@@H](NC(=O)c3cnc4ccccc4n3)C(=O)N[C@@H](C)C(=O)N(C)[C@@H]1C(=O)N(C)[C@@H](C(C)C)C(=O)OC[C@@H](NC(=O)c1cnc3ccccc3n1)C(=O)N[C@@H](C)C(=O)N2C
T
Cc1cc(OCc2nnc(SC3CCCC3)n2-c2cccnc2)ccc1-c1ccc(S(C)(=O)=O)cc1
T
C[C@H]1O[C@H](O[C@H]2[C@H](O)[C@@H](O)[C@@H](O[C@H]3[C@H](O)[C@@H](O)C(O)O[C@@H]3CO)O[C@@H]2CO)[C@H](O)[C@@H](O)[C@@H]1N[C@H]1C=C(CO)[C@@H](O)[C@H](O)[C@H]1O (stereo partly specified)
T

Let's switch to this compound now.
**Q:** Does this compound meet the criterion cell viability activity < -80%? C#CCC(Cc1cnc2nc(N)nc(N)c2n1)c1ccc(C(=O)N[C@@H](CCC(=O)O)C(=O)O)cc1 (stereo partly specified)
**A:** F

====

system: HT29 RNF43 G659fs (RNF43 659mut, CRISPR-edited); assay: cell viability activity relative to DMSO (negative = inhibition); higher = more viable cells (less growth inhibition); details: 5 µM; 96 h
Rule: cell viability activity below -70% gives Yes. Equal to or above -70% gives No.

Use these answered entries as a reference point.
CC(C)(C)c1ccc(S(=O)(=O)/C=C/C#N)cc1
Yes
Cc1cccc(/C=N/Nc2cc(N3CCOCC3)nc(OCCc3ccccn3)n2)c1
No
Cc1ccccc1CN1C(=O)C2=C(CCN(Cc3ccccc3)C2)N2CCN=C12
Yes
O=C1/C(=C/c2ccccc2)C(NC2CCCCC2)c2ccccc21 (centres undefined)
Yes
Cc1ccc(/C=C2\CNC/C(=C\c3ccc(C)cc3)C2=O)cc1
Yes
CC(C)N(C[C@H]1O[C@@H](n2cnc3c(N)ncnc32)[C@H](O)[C@@H]1O)[C@H]1C[C@@H](CCc2nc3cc(C(C)(C)C)ccc3[nH]2)C1
No
CC(C)[C@](O)(c1ccc2cc(OC(F)F)c(OC(F)F)cc2c1)c1c[nH]nn1
No
CC(C)(C)c1[nH]cnc1/C=c1\[nH]c(=O)/c(=C/c2ccccc2)[nH]c1=O
No

Consider the record given below.
**Q:** is_below(cell viability activity, -70%) for Cc1cc(N2CCOCC2)cc2[nH]c(-c3c(NC[C@@H](O)c4cccc(Cl)c4)cc[nH]c3=O)nc12 ?
**A:** No

====

test system: HT29 sg-Ctrl (RNF43 wildtype); experiment: cell viability activity relative to DMSO (negative = inhibition); higher = more viable cells (less growth inhibition); details: 5 µM; 96 h
Define the label as true when cell viability activity is strictly less than -40% and as false in all remaining cases.

Observe how each entry below is paired with its result.
Oc1ccc(CC2NCCc3cc(O)c(O)cc32)cc1 (stereo not given)
true
CC(=O)c1cnc2ccc(-c3cc(Cl)c(O)c(Cl)c3)nc2c1N[C@H]1CC[C@H](CN(C)C)CC1
true
CCNC(=O)C#Cc1ccc2c(C(=Nc3ccc(CN(C)C)cc3)c3ccccc3)c(O)[nH]c2c1
true
O=C(CCCCCCC(=O)Nc1cccnc1)NO
true
C=CC(=O)Nc1cccc(Oc2nc(Nc3ccc(N4CCN(C)CC4)cc3)ncc2Cl)c1
true
COc1cc(Nc2ncc(F)c(Nc3ccc4c(n3)NC(=O)C(C)(C)O4)n2)cc(OC)c1OC
false

**Q:** API: query returns whether the compound falls strictly under -40% in cell viability activity. Query: C=C1C(=O)O[C@H]2[C@H]1CC/C(C)=C/CC[C@@]1(C)O[C@@H]21
**A:** false

**Q:** Is cell viability activity of O=C(NC1CCNCC1)c1n[nH]cc1NC(=O)c1c(Cl)cccc1Cl strictly below -40%?
**A:** true

**Q:** Please indicate whether the reported cell viability activity of CN1CCN(Cc2ccc(-c3cnc4[nH]cc(-c5ccc6[nH]ccc6c5)c4c3)cc2)CC1 is strictly below -40%.
**A:** true

**Q:** Strictly below -40% in cell viability activity? Cn1c(=O)n(-c2ccc(C(C)(C)C#N)cc2)c2c3cc(-c4cnc5ccccc5c4)ccc3ncc21
**A:** true
